target_entity: GCN2 kinase (Homo sapiens (Human), UniProt Q9P2K8)
measurement_type: IC50

NC(=O)[C@@H]1CCCN(c2ncc(F)c(-c3cnc4ccc(C(F)(F)F)cn34)n2)C1 : < 10 nM
CC1CN(c2ccnc(-c3cnc4ccc(C(F)(F)F)cn34)n2)CC(C)N1C1CC1 (centres unmarked) : 100 to 1000 nM
O=C(c1cn[nH]n1)N1CCN(c2ccnc(-c3cnc4ccc(C(F)(F)F)cn34)n2)CC1c1cn[nH]c1 (centres unmarked) : 10 to 100 nM
Cc1nn(C)cc1[C@H]1C[C@@H](C)CN(c2nccc(-c3cnc4ccc(C(F)(F)F)cn34)n2)C1 : 100 to 1000 nM
C[C@@H]1CN(c2ccnc(-c3cnc4ccc(C(F)(F)F)cn34)n2)C[C@H](C)N1C(=O)C1CC1(F)F (some centres unmarked) : 10 to 100 nM
NC1CN(c2ccnc(-c3cnc4ccc(Cl)cn34)n2)CC[C@H]1O (stereo in doubt) : 100 to 1000 nM
NC(=O)[C@@H]1CN(c2ccnc(-c3cnc4cc(F)c(Cl)cn34)n2)CCN1C1CC1 : 10 to 100 nM

Give the reported IC50 for CC1CN(c2ccnc(-c3cnc4ccc(Cl)cn34)n2)CC(c2cnn(S(C)(=O)=O)c2)N1S(C)(=O)=O (centres unmarked) (system: GCN2 kinase (Homo sapiens (Human), UniProt Q9P2K8)).
100 to 1000 nM

---

target_entity: intracellular GCN2 (phosphorylation of the GCN2 substrate eIF2α) (Homo sapiens (Human))
Sequence (Q9P2K8 whole entry): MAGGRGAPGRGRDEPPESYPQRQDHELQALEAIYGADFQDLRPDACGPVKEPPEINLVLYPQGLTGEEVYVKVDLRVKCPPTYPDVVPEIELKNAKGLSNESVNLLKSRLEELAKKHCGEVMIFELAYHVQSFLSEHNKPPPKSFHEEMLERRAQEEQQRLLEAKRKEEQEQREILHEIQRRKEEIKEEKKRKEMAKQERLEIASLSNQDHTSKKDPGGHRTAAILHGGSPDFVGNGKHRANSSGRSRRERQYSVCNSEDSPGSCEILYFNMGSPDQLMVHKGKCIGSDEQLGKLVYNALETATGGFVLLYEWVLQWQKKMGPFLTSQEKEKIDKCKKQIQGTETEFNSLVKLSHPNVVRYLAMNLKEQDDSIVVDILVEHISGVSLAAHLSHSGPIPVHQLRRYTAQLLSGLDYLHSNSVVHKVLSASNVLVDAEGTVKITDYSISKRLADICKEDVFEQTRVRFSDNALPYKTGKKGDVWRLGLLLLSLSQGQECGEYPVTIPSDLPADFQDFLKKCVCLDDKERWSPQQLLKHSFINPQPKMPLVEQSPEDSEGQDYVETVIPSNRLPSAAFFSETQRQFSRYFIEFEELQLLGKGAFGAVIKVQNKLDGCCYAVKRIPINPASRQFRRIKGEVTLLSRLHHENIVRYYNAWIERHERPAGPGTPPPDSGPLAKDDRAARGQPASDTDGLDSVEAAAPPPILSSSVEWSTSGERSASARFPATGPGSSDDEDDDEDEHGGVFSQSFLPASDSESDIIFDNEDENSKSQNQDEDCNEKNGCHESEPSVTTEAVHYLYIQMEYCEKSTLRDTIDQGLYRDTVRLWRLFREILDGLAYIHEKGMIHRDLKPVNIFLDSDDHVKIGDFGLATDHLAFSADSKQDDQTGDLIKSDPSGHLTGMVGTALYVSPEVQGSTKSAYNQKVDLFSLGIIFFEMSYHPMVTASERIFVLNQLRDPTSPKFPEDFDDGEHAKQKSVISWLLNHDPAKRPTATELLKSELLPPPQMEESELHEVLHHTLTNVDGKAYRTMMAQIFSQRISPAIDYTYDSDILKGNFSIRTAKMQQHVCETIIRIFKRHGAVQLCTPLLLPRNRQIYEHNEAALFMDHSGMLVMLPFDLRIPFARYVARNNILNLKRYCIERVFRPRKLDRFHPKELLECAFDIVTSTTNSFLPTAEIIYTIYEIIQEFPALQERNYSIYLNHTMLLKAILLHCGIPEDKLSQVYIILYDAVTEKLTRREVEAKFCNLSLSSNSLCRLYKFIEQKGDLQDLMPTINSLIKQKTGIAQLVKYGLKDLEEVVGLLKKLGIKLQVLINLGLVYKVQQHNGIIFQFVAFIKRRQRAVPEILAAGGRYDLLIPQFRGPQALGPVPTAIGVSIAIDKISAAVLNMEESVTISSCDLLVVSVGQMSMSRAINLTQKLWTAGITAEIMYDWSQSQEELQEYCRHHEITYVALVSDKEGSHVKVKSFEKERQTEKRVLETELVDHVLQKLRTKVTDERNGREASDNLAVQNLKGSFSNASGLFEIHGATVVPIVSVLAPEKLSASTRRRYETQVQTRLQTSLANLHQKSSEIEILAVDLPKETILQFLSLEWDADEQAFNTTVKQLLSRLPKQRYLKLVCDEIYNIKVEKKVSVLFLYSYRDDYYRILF
test_protocol: GCN2 Cellular Inhibition Assay (AlphaScreen SureFire P-eIF2α Ser51, borrelidin-treated U2OS cells)
Assay type: cell-based
test_settings: 10 μM borrelidin, 1 h, phosphorylated eIF2α Ser51, read-out: GCN2 Biomarker (IC50)
pIC50: −log10 of the molar value.
measurement_type: pIC50

FC(F)(F)c1ccc2ncc(-c3nccc(N4CCN(CC5C6COCC65)C(c5cn[nH]c5)C4)n3)n2c1 (stereo not shown) [I-370] : > 6.30
Cn1cc(NC(=O)[C@H]2CCCN(c3ccnc(-c4cnc5cc(F)c(Cl)cn45)n3)C2)cn1 [I-59] : < 5.30
O=C(CCn1ccnc1)N1CCN(c2ccnc(-c3cnc4ccc(C(F)(F)F)cn34)n2)CC1c1cn[nH]c1 (stereo not shown) [I-422] : < 5.30

We now examine a further compound.
Param item = C[C@@H]1C[C@H](N=S(C)(C)=O)CN(c2ccnc(-c3cnc4ccc(C(F)F)cn34)n2)C1 [I-340] ; retrieve measured pIC50.
> 6.30

Value source: patent US10793563B2
